# measuredOn: PARP7 (Homo sapiens, UniProt Q7Z3E1)
# Sequence (Q7Z3E1 whole entry): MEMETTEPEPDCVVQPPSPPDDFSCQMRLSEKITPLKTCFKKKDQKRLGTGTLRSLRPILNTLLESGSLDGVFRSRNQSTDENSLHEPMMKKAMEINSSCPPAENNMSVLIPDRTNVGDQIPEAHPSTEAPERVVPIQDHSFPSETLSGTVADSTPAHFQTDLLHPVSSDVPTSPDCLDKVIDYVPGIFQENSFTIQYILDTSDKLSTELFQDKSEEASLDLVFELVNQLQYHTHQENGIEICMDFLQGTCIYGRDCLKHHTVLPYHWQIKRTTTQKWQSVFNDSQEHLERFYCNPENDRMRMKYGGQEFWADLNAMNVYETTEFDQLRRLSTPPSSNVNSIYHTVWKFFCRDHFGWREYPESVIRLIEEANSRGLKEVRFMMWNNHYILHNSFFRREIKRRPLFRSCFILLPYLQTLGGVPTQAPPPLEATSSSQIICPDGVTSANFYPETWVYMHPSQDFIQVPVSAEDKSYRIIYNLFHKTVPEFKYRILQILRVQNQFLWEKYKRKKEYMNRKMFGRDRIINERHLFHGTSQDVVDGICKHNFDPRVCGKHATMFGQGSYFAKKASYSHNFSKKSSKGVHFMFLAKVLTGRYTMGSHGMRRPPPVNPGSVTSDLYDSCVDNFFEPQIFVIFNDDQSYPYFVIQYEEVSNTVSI
# assayComment: Probe Displacement Assay for PARP7 (MSD electrochemiluminescent, biotinylated probe RBNO11147)
# runConditions: displacement of biotinylated probe RBNO11147 from PARP7 NAD+-binding site; read-out: MSD ProbeDisp PARP7 IC50
valueType: IC50 (pM)

C[C@@H](CCCn1ccc2cc(-c3cccc4c3OCC4)c(F)cc2c1=O)Nc1cn[nH]c(=O)c1C(F)(F)F ... 400
C[C@@H](CCCn1ccc2cc(-c3ccc(C4(C#N)CC4)cn3)cc(F)c2c1=O)Nc1cn[nH]c(=O)c1C(F)(F)F ... 300
C[C@@H](CCCn1ccc2cc(-c3ncc(C(F)F)cn3)c(F)c(F)c2c1=O)Nc1cn[nH]c(=O)c1C(F)(F)F ... 496
C[C@@H](CCCn1ccc2cc(-c3ccc(C#N)cn3)cc(F)c2c1=O)Nc1cn[nH]c(=O)c1C(F)(F)F ... 400

Origin of values: patent US12459922B2
